# System: MCF7
# test description: Cytotoxicity against human MCF7 cells assessed as cell surviving fraction at 25 uM after 48 hrs by SRB assay
# Type: functional
Assign 1.0 to entries whose Activity meets or exceeds 0.7; assign 0.0 to the rest.

Exam item: Is the recorded value of Activity equal to or greater than 0.7 for this molecule? `CCOC(=O)c1c(N)sc(C(=O)N/N=C(\C)c2ccc(S(=O)(=O)N3CCCCC3)cc2)c1N`
Marked response: 1.0

Exam item: Same for `C/C(=N\NC(=O)c1sc(N)c(C#N)c1N)c1ccc(S(=O)(=O)N2CCCCC2)cc1`
Marked response: 0.0

Exam item: Next molecule up: `CCOC(=O)c1c(-c2ccc(Cl)cc2)c(C#N)c(=O)n(/N=C(\C)c2ccc(S(=O)(=O)N3CCCCC3)cc2)c1N`
Marked response: 1.0

Exam item: Then `C/C(=N\n1c(N)cc(N)c(C#N)c1=O)c1ccc(S(=O)(=O)N2CCCCC2)cc1` ?
Marked response: 0.0

Exam item: Also `C/C(=N\NC(=O)c1sc2c(c1N)CCC2)c1ccc(S(=O)(=O)N2CCCCC2)cc1` , if possible.
Marked response: 1.0

Exam item: Continue with `CCOC(=O)c1c(-c2ccc(O)cc2)c(C#N)c(=O)n(/N=C(\C)c2ccc(S(=O)(=O)N3CCCCC3)cc2)c1N`
Marked response: 0.0

Exam item: Now give it for `C/C(=N\NC(=O)c1sc2c(c1N)CCCC2)c1ccc(S(=O)(=O)N2CCCCC2)cc1` too.
Marked response: 1.0

Exam item: # iterate: `C/C(=N\n1c(O)cc(N)c(C#N)c1=O)c1ccc(S(=O)(=O)N2CCCCC2)cc1`
Marked response: 0.0

Exam item: Further, for `C/C(=N\NC(=O)c1sc(=S)n(-c2ccccc2)c1N)c1ccc(S(=O)(=O)N2CCCCC2)cc1` ?
Marked response: 1.0

Exam item: Repeat with `CCOC(=O)c1c(-c2ccc(N(C)C)cc2)c(C#N)c(=O)n(/N=C(\C)c2ccc(S(=O)(=O)N3CCCCC3)cc2)c1N`
Marked response: 1.0

Exam item: Next record, please: `CCOC(=O)c1c(-c2ccc(OC)cc2)c(C#N)c(=O)n(/N=C(\C)c2ccc(S(=O)(=O)N3CCCCC3)cc2)c1N`
Marked response: 0.0

Exam item: `C/C(=N\NC(=O)CC#N)c1ccc(S(=O)(=O)N2CCCCC2)cc1` , same question.
Marked response: 0.0

Exam item: Field entry: `CCOC(=O)c1c(-c2ccc(C)cc2)c(C#N)c(=O)n(/N=C(\C)c2ccc(S(=O)(=O)N3CCCCC3)cc2)c1N`
Marked response: 0.0
